test system: K4 kissing-loop RNA reporter; assay: apparent KD of K4 kissing-loop reporter; higher = weaker reporter binding; conditions: Eterna round: R107; input ligand: theophylline 20 uM;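 further: bound reporter read as fluorescence of individual clusters on recovered sequencing chips by microscopy, with normalized cluster intensities fitted with a binding model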
We use 300 nM as the dividing line for apparent KD of K4 kissing-loop reporter: on or above the line is Met, below is Not met.

Example entries and their recorded answers appear below.
Seq text	Label class
UGUGGAGAAUAUGAUACCAGCAGUGAGAGAGAGGAAGUAUAGUGAUGUUAUAUGAGAGAAUGCCCUUGGCAGCAUAUGUAGAAGG [SSTheophylB.F]	Not met
UGAUACCAGACUGAUACCAGCUAGUGAUGUUAGCUGAAAUCAGGGUCAAAGACCCUGUCUAGCCCUUGGCAGCAGUCUGGUAUCU [TheoBX 9 #SwitchBubble #StaticStem]	Not met
GUAUGUGGAAACACGUACUUGUAUCCUAGGAAGGAUAUGCGGAAACGCAGAAGGUCCACCGGCGAGUUUAUCCAGUGAUGUUGGA [Ex FMN A 10]	Met

IN: Given the entry AGACUACCACACUGUCAAUAGACAGUGAGGUAGGAUAUGCUGAAAAGCAGAAGGACCAGUGAUGUUGGUAGGUAGUCAAAAUAAA [FmnAX 11 #SwitchBubble #StaticStem #K4Early] , answer whether its apparent KD of K4 kissing-loop reporter meets or surpasses 300 nM.
OUT: Not met

IN: hey, is apparent KD of K4 kissing-loop reporter for this one >= 300 nM? AAGCCAUACUCGGCCGCCACUUACUUCGUUGCAGUGAUGUUGCACACGAAUCCGUCAUAGCAAAUAAGGACCGGGAGAUAUACCG [theeternabot_exclusion_KL_Trp_B_19]
OUT: Not met

IN: Determine whether measured apparent KD of K4 kissing-loop reporter meets or exceeds 300 nM for UGUCAUUGGUCUGAUACCAGUUAGACCGAUAGGUCAAAACUGGAGUGAUGUUCCUAAAAUAACCCUUGGCAGCAGACCGAUGACU [TheoBS 2 #SwitchBubble #StaticStem]
OUT: Met

IN: Given AAAAUAAACCAGUGAUGUUGGUAUCCAGAUACCAGCGACGAAAGUCGCCCUUGGCAGCUGUGGACGUACAAAAUAAGUACGUCCU , state whether its apparent KD of K4 kissing-loop reporter is at least 300 nM.
OUT: Met

IN: Hi, just wondering whether GGUAGCAUGGCGGCCGCCACUACCUAGUGAUGUUAGGCUGUGGACAUAGGAGCAAAAUAAAUAUGUAGGACCGGGCCAUGCUACC shows apparent KD of K4 kissing-loop reporter of 300 nM or higher.
OUT: Not met

From: the supplement of paper PMC9170038
